biological target: human Programmed Death-1 (PD-1) expressed on the cell surface (human, UniProt Q15116 25-288); assay: cell-based or functional assay
Sequence (Q15116 25-288): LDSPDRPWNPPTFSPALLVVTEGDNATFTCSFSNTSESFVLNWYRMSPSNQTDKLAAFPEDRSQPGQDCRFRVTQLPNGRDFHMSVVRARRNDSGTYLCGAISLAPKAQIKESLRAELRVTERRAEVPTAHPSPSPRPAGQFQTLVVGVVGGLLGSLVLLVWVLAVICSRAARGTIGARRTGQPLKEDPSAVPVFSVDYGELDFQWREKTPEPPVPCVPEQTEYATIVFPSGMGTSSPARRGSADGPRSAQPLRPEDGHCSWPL
Attribute: Fold Induction IFN-γ (relative to isotype control; NSCLC biopsy cells, 20 µg/mL)
Reported Metric: Fold Induction IFN-γ (relative to isotype control; NSCLC biopsy cells, 20 µg/mL) (fold)

• 388D4-3 (100388_D4_HC1 + 100389_D4_LC3) (antibody, V domains shown) VH: EVQLVQSGAEVKKPGASVKVSCKASGYTFTDYEMHWVRQAPGQGLEWMGIIDPGTGGTAYNQKFQGRVTMTADKSTSTVYMELSSLRSEDTAVYYCTSEKFGSNYYFDYWGQGTLVTVSS VL: DIVMTQTPLSSPVTLGQPASISCRSSQTIVHSDGNTYLEWYQQRPGQPPRLLIYKVSNRFSGVPDRFSGSGAGTDFTLKISRVEAEDVGVYYCFQGSHVPLTFGQGTKLEIK = 7.2
• 244C8-3 (100244_C8_HC2 + 100245_C8_LC1) (antibody, V domains shown) VH: EVQLVQSGAEVKKPGASVKVSCKASGYTFTSYWMHWVRQAPGQGLEWMGMIDPSNSETSLNQKFQGRVTLNVDKSTNTAYMELSSLRSEDTAVYYCARSRGNYAYEMDYWGQGTLVTVSS VL: EIVLTQSPATLSLSPGERATLSCRASSSVSSNYLYWYQQKPGQAPRLLIYSTSNRATGIPARFSGSGSGTDYTLTISSLEPEDFAVYYCHQWSSYPPTFGQGTKLEIK = 7.79
• 244C8-1 (100244_C8_HC1 + 100245_C8_LC1) (antibody, V domains shown) VH: QVQLVQSGAEVKKPGASVKVSCKASGYTFTSYWMHWVRQAPGQGLEWMGMIDPSNSETSLNQKFQGRVTMTVDKSTNTVYMELSSLRSEDTAVYYCARSRGNYAYEMDYWGQGTLVTVSS VL: EIVLTQSPATLSLSPGERATLSCRASSSVSSNYLYWYQQKPGQAPRLLIYSTSNRATGIPARFSGSGSGTDYTLTISSLEPEDFAVYYCHQWSSYPPTFGQGTKLEIK = 8.04
• 388D4-2 (100388_D4_HC3 + 100389_D4_LC3) (antibody, V domains shown) VH: EVQLVQSGAEVKKPGASVKVSCKASGYTFTDYEMHWVRQAPGQRLEWMGVIDPGTGGTAYNQKFQGRVTITADKSASTAYMELSSLRSEDTAVYYCTSEKFGSNYYFDYWGQGTLVTVSS VL: DIVMTQTPLSSPVTLGQPASISCRSSQTIVHSDGNTYLEWYQQRPGQPPRLLIYKVSNRFSGVPDRFSGSGAGTDFTLKISRVEAEDVGVYYCFQGSHVPLTFGQGTKLEIK = 7.58

Cited source: patent US20160251436A1
